target: Cyclin-dependent kinase 2 (Homo sapiens); conditions: Compound concentration 20.0 uM, Protein concentration 2.0 uM, Result type QC Liability
Description: Thermal Shift Assay. Domain: start/stop: M1-L298
Threshold-based label: ΔTm under 0.3 °C gives yes (1), ΔTm not under 0.3 °C gives no (0).

Task: Is the reported ΔTm for CC1(C)CCN(C(=O)C2CN(c3c4c(nc5ccnn35)CCNCC4)C2)C1 strictly below 0.3 °C?
Result: no (0)

Task: Do the same for CCCN1C(=O)c2ccc(Cl)cc2Nc2ncccc21 please
Result: no (0)

Task: Do the same for COc1ccccc1N1CCN(c2ncnc3c2cnn3-c2ccccc2)CC1 please
Result: yes (1)

Task: Do the same for Cc1cc(S(=O)(=O)N2CC(C)(C)c3cc(-c4ccc(C(F)(F)F)cc4)ccc32)ccc1OCC(=O)O please
Result: yes (1)

Task: Do the same for COC(=O)Nc1nc2c(s1)-c1c(c(-c3cccnc3)nn1-c1ccc(C3(N(C)C)CC3)cc1)CC2 please
Result: no (0)

Task: Do the same for CN(C)[C@H]1CCN(c2cc(C(F)(F)F)c(C#N)c(Nc3cccc(CCC(=O)O)c3)n2)C1 please
Result: yes (1)

Task: Do the same for CCn1c(CNC(=O)c2ncc(C)nc2N)[n+](CC)c2ccc(C(=O)N(C)CCN(C)C)cc21 please
Result: no (0)

Task: Do the same for Cc1c(CCC(=O)O)cccc1NC(=O)[C@@H](c1ccc(-c2cncc(Cl)c2)c(F)c1)C1CCCC1 please
Result: yes (1)

Task: Do the same for CCOC(=O)Nc1ccc2c(c1)N(C(=O)CN(CC)CC)c1ccccc1CC2 please
Result: no (0)

Task: Do the same for CNC(=O)COc1cc2cc(Nc3nc(N4C[C@H](C)C[C@H](C)C4)ncc3Cl)ccc2n(C)c1=O please
Result: no (0)

Task: Do the same for CN(C)CCC[C@@]1(c2ccc(F)cc2)OCc2cc(C#N)ccc21 please
Result: no (0)

Task: Do the same for CCS(=O)(=O)c1cc2cc(C[C@](O)(CC(C)(C)c3ccc(F)cc3C(N)=O)C(F)(F)F)[nH]c2cn1 please
Result: no (0)

Task: Do the same for COc1cc(-c2cc3ncccc3c(OC[C@H]3CNC(=O)C3)n2)cc(OC)c1OC1CCOCC1 please
Result: yes (1)

Task: Do the same for COc1cccc(-c2c(C)c(Cc3c(F)cccc3C(F)(F)F)c3n(c2=O)[C@@H]([C@@H](N)c2ccccc2)CS3)c1F please
Result: yes (1)

Task: Do the same for COc1cc(N[C@@H]2CCCC[C@]2(O)C(F)(F)F)ccc1F please
Result: no (0)

----------
biological target: Aurora kinase A (Homo sapiens) (UniProt O14965); conditions: Compound concentration 20.0 uM, Protein concentration 2.0 uM, Result type QC Liability
Sequence (O14965 whole entry): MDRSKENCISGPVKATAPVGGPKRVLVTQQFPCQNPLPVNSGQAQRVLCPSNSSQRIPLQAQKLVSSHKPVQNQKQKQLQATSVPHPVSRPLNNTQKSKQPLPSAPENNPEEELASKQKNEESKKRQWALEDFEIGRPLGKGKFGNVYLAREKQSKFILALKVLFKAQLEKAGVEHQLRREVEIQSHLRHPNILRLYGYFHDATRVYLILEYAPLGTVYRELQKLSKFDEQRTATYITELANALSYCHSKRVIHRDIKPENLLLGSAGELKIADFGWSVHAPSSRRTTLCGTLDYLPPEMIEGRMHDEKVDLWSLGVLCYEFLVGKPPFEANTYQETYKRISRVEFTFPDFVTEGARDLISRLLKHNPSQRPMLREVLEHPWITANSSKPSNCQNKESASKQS
Description: Thermal Shift Assay. Domain: start/stop: E122-S403
Threshold-based label: ΔTm under 0.2 °C gives Criterion met, ΔTm not under 0.2 °C gives Criterion not met.

Task: Is the reported ΔTm for Cc1ncsc1-c1ccc(CNC(=O)[C@@H]2C[C@@H](O)CN2C(=O)[C@@H](NC(=O)CCCCNC(=O)c2ccc(-c3ccc(N4CCN(C)CC4)c(NC(=O)c4c[nH]c(=O)cc4C(F)(F)F)c3)cc2)C(C)(C)C)cc1 strictly below 0.2 °C?
Result: Criterion not met

Task: Do the same for Cc1nc2ccc(Oc3ccc(F)cc3)cc2c(=O)n1C[C@H]1CCCN(C(C)C)C1 please
Result: Criterion met

Task: Do the same for CC(C)(C)NC(=O)c1cncn1C1CCN(c2ccc(-c3nnc(C(F)(F)F)o3)cn2)CC1 please
Result: Criterion not met

Task: Do the same for O=C(Nc1ccnc(NC(=O)C2CC2)c1)c1c(Cl)cccc1Cl please
Result: Criterion not met

Task: Do the same for N=C(N)Nc1cc(C2CCNCC2)cc(C(F)(F)F)c1 please
Result: Criterion met

Task: Do the same for CC1=C(C(=O)OCCO)[C@@H](c2ccc(C#N)cc2)NC(=O)N1c1cccc(C(F)(F)F)c1 please
Result: Criterion met

Task: Do the same for CCN1C(=O)/C(=C(\NC2CCN(C)CC2)c2ccc3c(c2)OCO3)c2cc(C(C)=O)ccc21 please
Result: Criterion met

Task: Do the same for N#CC[C@H](C1CCCC1)n1cc(-c2ncnc3[nH]ccc23)cn1 please
Result: Criterion not met

Task: Do the same for Cc1c(N2CCNCC2)nc2ccc(Br)cc2c1C(=O)NC[C@H](CCC(=O)O)c1ccccc1Cl please
Result: Criterion not met

----------
biological target: Casein kinase I isoform delta (Homo sapiens) (UniProt P48730); settings: Compound concentration 20.0 uM, Protein concentration 2.0 uM, Result type QC Liability
Sequence (P48730 whole entry, looked up, canonical isoform): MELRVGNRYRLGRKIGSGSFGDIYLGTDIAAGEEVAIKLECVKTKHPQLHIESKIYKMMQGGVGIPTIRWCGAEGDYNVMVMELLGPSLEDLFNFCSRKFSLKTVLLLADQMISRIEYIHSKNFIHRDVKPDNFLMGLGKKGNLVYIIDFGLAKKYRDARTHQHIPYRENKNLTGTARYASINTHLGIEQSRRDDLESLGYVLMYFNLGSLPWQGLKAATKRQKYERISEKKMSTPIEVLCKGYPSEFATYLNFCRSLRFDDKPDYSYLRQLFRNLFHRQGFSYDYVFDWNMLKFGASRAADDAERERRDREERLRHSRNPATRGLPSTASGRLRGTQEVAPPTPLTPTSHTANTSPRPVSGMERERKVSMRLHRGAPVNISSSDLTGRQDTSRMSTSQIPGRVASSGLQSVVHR
Description: Thermal Shift Assay. Domain: start/stop: M1-K294
Outcome: label 1 for ΔTm of at least -0.1 °C; label 0 for anything lower.

Task: hey, is ΔTm for this one >= -0.1 °C? C[C@H]1CN(C2COC2)CCN1c1ccc(Nc2cc(-c3ccnc(N4CCn5c(cc6c5CC(C)(C)C6)C4=O)c3CO)cn(C)c2=O)nc1
Result: label 1

Task: Do the same for C=CC(=O)Nc1cccc(C)c1Nc1ncc2cc(-c3c(Cl)c(OC)cc(OC)c3Cl)ccc2n1 please
Result: label 1

Task: Do the same for NC(=O)OC[C@H](NC(=O)Cn1nc(-c2ccc(Cl)cc2)n(C[C@H](O)C(F)(F)F)c1=O)c1cccc(C(F)(F)F)c1 please
Result: label 1

Task: Do the same for N=C(N)NCCC[C@H](NC(=O)CC1(CC(=O)N2CCN(C3c4ccccc4NC(=O)c4ccccc43)CC2)CCCC1)C(=O)NCCn1c(=O)n(-c2ccccc2)n(-c2ccccc2)c1=O (stereo not given in full) please
Result: label 0

Task: Do the same for CCN1C(=O)N(c2c(F)c(OC)cc(OC)c2F)Cc2cnc3[nH]c(CN4CCOCC4)cc3c21 please
Result: label 1

Task: Do the same for CC(C)(c1ccc(OCc2cccc(COc3ccc(C(=N)N)cc3)c2)cc1)c1ccc(O[C@@H]2O[C@H](C(=O)O)[C@@H](O)[C@H](O)[C@H]2O)cc1 please
Result: label 0

Task: Do the same for O=C(Cc1ccccc1)Nc1nnc(N2C[C@H]3C[C@@H]2CN3c2cccnn2)s1 please
Result: label 0

Task: Do the same for N#Cc1ccc(COc2ccc(Br)cc2CNCCO)cn1 please
Result: label 1

Task: Do the same for CC(C)c1nc2c(c3c1[C@H](c1ccc(C(F)(F)F)cc1)OC31CCOCC1)[C@H](O)CC(C)(C)C2 please
Result: label 0

Task: Do the same for O=C(O)CCCN1CCC[C@H]1COc1ccc(Oc2ccc(Cl)cc2)cc1 please
Result: label 0

Task: Do the same for CN(CCCCCCC1=C(c2cc(F)cc(F)c2)CCCc2cc(O)ccc21)CCCCS(=O)(=O)CCCC(F)(F)F please
Result: label 1

Task: Do the same for CN(C(=O)c1cnn2cccnc12)c1cc2c(cc1N1CCOCC1)C(=O)N(C[C@@H](F)C(C)(C)O)C2 please
Result: label 1

Task: Do the same for COc1cc2nc(-c3cc(F)ccc3O)nc(N[C@@H]3CNC[C@H]3C(C)(C)O)c2cc1OC please
Result: label 1

Task: Do the same for O=C(O)c1ccc(OCCCc2ccc(OCCCCOC3CCCCC3)cc2)c(C(=O)NC2CCCC(C(=O)O)C2)c1 (stereo not given) please
Result: label 1

----------
molecular target: Glycogen synthase kinase-3 beta (Homo sapiens) (UniProt P49841); conditions: Compound concentration 20.0 uM, Protein concentration 2.0 uM, Result type QC Liability
Sequence (P49841 whole entry, looked up): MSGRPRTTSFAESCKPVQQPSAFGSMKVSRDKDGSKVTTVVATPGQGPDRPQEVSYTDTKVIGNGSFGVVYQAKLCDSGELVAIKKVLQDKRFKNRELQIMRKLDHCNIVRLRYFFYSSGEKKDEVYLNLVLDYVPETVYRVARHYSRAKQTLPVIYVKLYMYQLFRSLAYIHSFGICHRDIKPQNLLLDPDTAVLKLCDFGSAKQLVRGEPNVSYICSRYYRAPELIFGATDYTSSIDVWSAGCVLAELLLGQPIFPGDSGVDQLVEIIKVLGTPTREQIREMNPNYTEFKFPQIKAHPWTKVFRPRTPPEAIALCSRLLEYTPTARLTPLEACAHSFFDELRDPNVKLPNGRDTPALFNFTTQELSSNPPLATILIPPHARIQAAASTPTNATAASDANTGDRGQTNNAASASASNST
Description: Thermal Shift Assay. Domain: start/stop: M26-R383
reported-property: ΔTm (°C)
Provide only the numeric value, understood in °C.

Task: Give ΔTm (Glycogen synthase kinase-3 beta (Homo sapiens) (UniProt P49841)) of the following molecule: COc1cc2nc(C)nc(N[C@H](C)c3cc(N)cc(C(F)(F)F)c3)c2cc1O[C@H]1CCOC1
Result: 0.96

Task: Do the same for C[C@@H]1Cc2c([nH]c3ccccc23)[C@@H](c2c(F)cc(/C=C/C(=O)O)cc2F)N1CC(C)(C)F please
Result: 0

Task: Do the same for COc1cccc(Cn2cc(C(=O)Nc3ccc(C)c(S(=O)(=O)N4CCOCC4)c3)c(-c3ccc(C)cc3)n2)c1 please
Result: 1.92

Task: Do the same for CC(F)(F)CN1C(=O)c2[nH]nc(-c3cccc4[nH]c(=O)oc34)c2C1c1ccc(Oc2cc(C(F)(F)F)cc(C(F)(F)F)c2)cc1 (configuration not stated) please
Result: -4.17

Task: Do the same for C/C=C1\C(=O)CC2C3CCC4=CC(=O)CC[C@]4(C)C3CC[C@]12C (some centres not stated) please
Result: -1.05

Task: Do the same for Fc1ccc(-c2nc(-c3ccc4ccccc4c3F)[nH]c2-c2ccncc2)cc1 please
Result: 8.59

Task: Do the same for COc1ccc(F)c(F)c1C(=O)c1cnc(NC2CCN(S(C)(=O)=O)CC2)nc1N please
Result: 7.07

Task: Do the same for c1ccc2c(-c3coc4cc(-c5ccc(N6CCNCC6)cc5)cnc34)ccnc2c1 please
Result: -0.47

Task: Do the same for C[C@@H](COCCC(=O)N1CCN(c2ncc(C(F)(F)F)cn2)CC1)Nc1cn[nH]c(=O)c1C(F)(F)F please
Result: -0.82

Task: Do the same for Cc1cc2ncnn2cc1Nc1ncc2c(n1)n(C1CCOCC1)c(=O)n2C please
Result: 1.17

Task: Do the same for CNCc1ccc(-c2cc(-c3nc(-c4ccc(S(=O)(=O)C(C)C)cc4)cnc3N)on2)cc1 please
Result: 9.94

Task: Do the same for COc1cc(-c2cn(C)c(=O)c3cnccc23)c(OC)cc1CN(C)C please
Result: 0.1

Task: Do the same for CCOc1cc(CC(=O)N[C@@H](CC(C)C)c2ccccc2N2CCCCC2)ccc1C(=O)O please
Result: 0.38

Task: Do the same for CSc1ccc(C(=O)/C=C/c2cc(C)c(OC(C)(C)C(=O)O)c(C)c2)cc1 please
Result: 0.69

Task: Do the same for Cc1nc2cccnc2n2c(-c3cc([C@@]4(O)CCCOC4)ccc3Cl)nnc12 please
Result: -0.63

Task: Do the same for CCOC(=O)CS(=O)(=O)c1ccc([C@@H](CO)NC(=O)c2cc3c(Cl)c(Cl)c(C)cc3n2C)cc1 please
Result: -1.8

Task: Do the same for CC(C)N(C(=O)C1CCOCC1)c1cc(F)c(Oc2ncc(Cn3nccn3)cc2C(F)(F)F)cc1C(=O)O please
Result: -0.83
